system: HEK-293T; test: Multiplex assay against HEK293T; format: toxicity, cell-based; settings: human, 48 h, 10 µM, compound concentration 10 uM, replicate 1
Measurement name: Population Fragmented Nuclei (%)
Please don't drop the unit; write it after the number.

| Compound | Meas value |
| --- | --- |
| Br.CS(=O)(=O)Nc1c(O)ccc2c1CCCC2C1=NCCN1 (stereo not given) | 16% |
| CC(/C=C1\SC(=S)N(CCCC(=O)Nc2ccc(C(=O)O)c(O)c2)C1=O)=C\c1ccccc1 | 9% |
| O=C(NCCN1CCC(n2c(=O)[nH]c3cc(Cl)ccc32)CC1)c1ccc(F)cc1 [HALOPEMIDE] | 14% |
| CC[C@@H](C)Nc1nc(C)nc2c(-c3ccc(OC)nc3C)c(C)nn12 | 13% |

Okay, now this compound:
Inquiry: If you can, please state the reported Population Fragmented Nuclei (%) value of C[C@H](N)COC(=O)[C@@H](CCCCN)NC(=O)Cc1c(-c2ccc3ccccc3c2)[nH]c2c1ccc1ccccc12 .
Reply text: 13%

The reported numbers originate from ChEMBL document CHEMBL5058577.
